assay_comment: Cytotoxicity against human SH-SY5Y cells assessed as cell viability at 100 uM measured after 24 hrs by calcein-AM staining based fluorescence analysis
test_parameters: read-out: Activity
measured_quantity: viability at 24 h, 100 µM

INSERT INTO measurements (smiles_str, measured_quantity, result) VALUES
  ('CC(=O)N[C@@H](CS)C(=O)O', 'viability at 24 h, 100 µM', '114%');

----------
assay_comment: Cytotoxicity against human SH-SY5Y cells assessed as cell viability at 1 uM measured after 24 hrs by calcein-AM staining based fluorescence analysis
test_parameters: read-out: Activity
measured_quantity: viability at 24 h, 1 µM

INSERT INTO measurements (molecule, measured_quantity, result) VALUES
  ('COC(=O)[C@]12CCC(C)(C)C[C@@H]1[C@H]1C=C[C@@H]3[C@@]4(C)CC(SC#N)C(=O)C(C)(C)[C@@H]4CC[C@@]3(C)[C@]1(C)CC2 (stereo partly drawn)', 'viability at 24 h, 1 µM', '107%'),
  ('CC1(C)CC[C@]23CC[C@]4(C)[C@H](CC[C@@H]5[C@@]6(C)CC(C#N)=C(O)C(C)(C)[C@@H]6CC[C@]54C)[C@H]2[C@H]1OC3', 'viability at 24 h, 1 µM', '93.8%'),
  ('C=C(Cn1cc(-c2cccnc2)nn1)[C@@H]1CC[C@]2(C(=O)O)CC[C@]3(C)[C@H](CC[C@@H]4[C@@]5(C)CC[C@H](O)C(C)(C)[C@@H]5CC[C@]43C)[C@@H]12', 'viability at 24 h, 1 µM', '116%');

----------
assay_comment: Cytotoxicity against human SH-SY5Y cells assessed as cell viability at 1 uM measured after 24 hrs by calcein-AM staining based fluorescence analysis
test_parameters: read-out: Activity
measured_quantity: viability at 24 h, 1 µM (%)

INSERT INTO measurements (smiles_str, numeric_value) VALUES
  ('C=C(C(=O)O)[C@@H]1CC[C@]2(COC(C)=O)CC[C@]3(C)[C@H](CC[C@@H]4[C@@]5(C)CC[C@H](OC(C)=O)C(C)(C)[C@@H]5CC[C@]43C)[C@@H]12', 102),
  ('C=C(C)[C@@H]1CC[C@]2(C(=O)O)CC[C@]3(C)[C@H](C=C[C@@H]4[C@@]5(C)Cc6sc(N7CCOCC7)nc6C(C)(C)[C@@H]5CC[C@]43C)[C@@H]12', 90),
  ('C=C(C(=O)OCc1cn([C@@H]2O[C@H](COC(C)=O)[C@H](OC(C)=O)[C@H](OC(C)=O)[C@H]2OC(C)=O)nn1)[C@@H]1CC[C@]2(COC(C)=O)CC[C@]3(C)[C@H](CC[C@@H]4[C@@]5(C)CC[C@H](OC(C)=O)C(C)(C)[C@@H]5CC[C@]43C)[C@@H]12', 139),
  ('C=C(C(=O)OCc1c[nH]nn1)[C@@H]1CC[C@]2(COC(C)=O)CC[C@]3(C)[C@H](CC[C@@H]4[C@@]5(C)CC[C@H](OC(C)=O)C(C)(C)[C@@H]5CC[C@]43C)[C@@H]12', 119);

----------
Recorded viability at 24 h, 0.1 µM values for a group of compounds are listed next.
assay_comment: Cytotoxicity against human SH-SY5Y cells assessed as cell viability at 0.1 uM measured after 24 hrs by calcein-AM staining based fluorescence analysis
test_parameters: read-out: Activity
measured_quantity: viability at 24 h, 0.1 µM (%)

INSERT INTO measurements (smiles_str, measured_quantity, numeric_value) VALUES
  ('C=C(Cn1cc(-c2cccnc2)nn1)[C@@H]1CC[C@]2(C(=O)O)CC[C@]3(C)[C@H](CC[C@@H]4[C@@]5(C)CC[C@H](O)C(C)(C)[C@@H]5CC[C@]43C)[C@@H]12', 'viability at 24 h, 0.1 µM', 103),
  ('C=C(C(=O)O)[C@@H]1CC[C@]2(COC(C)=O)CC[C@]3(C)[C@H](CC[C@@H]4[C@@]5(C)CC[C@H](OC(C)=O)C(C)(C)[C@@H]5CC[C@]43C)[C@@H]12', 'viability at 24 h, 0.1 µM', 102),
  ('C=C(Cn1cc(-c2cccnc2)nn1)[C@@H]1CC[C@]2(C(=O)O)CC[C@]3(C)[C@H](CC[C@@H]4[C@@]5(C)CC[C@H](OC(C)=O)C(C)(C)[C@@H]5CC[C@]43C)[C@@H]12', 'viability at 24 h, 0.1 µM', 106);
